TEST TARGET: SMARCA4-HiBiT (Homo sapiens)
Construct: SMARCA4-HiBiT knock-in Hela monoclonal cell (CS3023226); host or cells: HeLa monoclonal knock-in line (CRISPR HiBiT knock-in at the endogenous locus, heterozygous)
Sequence (P51532 whole entry): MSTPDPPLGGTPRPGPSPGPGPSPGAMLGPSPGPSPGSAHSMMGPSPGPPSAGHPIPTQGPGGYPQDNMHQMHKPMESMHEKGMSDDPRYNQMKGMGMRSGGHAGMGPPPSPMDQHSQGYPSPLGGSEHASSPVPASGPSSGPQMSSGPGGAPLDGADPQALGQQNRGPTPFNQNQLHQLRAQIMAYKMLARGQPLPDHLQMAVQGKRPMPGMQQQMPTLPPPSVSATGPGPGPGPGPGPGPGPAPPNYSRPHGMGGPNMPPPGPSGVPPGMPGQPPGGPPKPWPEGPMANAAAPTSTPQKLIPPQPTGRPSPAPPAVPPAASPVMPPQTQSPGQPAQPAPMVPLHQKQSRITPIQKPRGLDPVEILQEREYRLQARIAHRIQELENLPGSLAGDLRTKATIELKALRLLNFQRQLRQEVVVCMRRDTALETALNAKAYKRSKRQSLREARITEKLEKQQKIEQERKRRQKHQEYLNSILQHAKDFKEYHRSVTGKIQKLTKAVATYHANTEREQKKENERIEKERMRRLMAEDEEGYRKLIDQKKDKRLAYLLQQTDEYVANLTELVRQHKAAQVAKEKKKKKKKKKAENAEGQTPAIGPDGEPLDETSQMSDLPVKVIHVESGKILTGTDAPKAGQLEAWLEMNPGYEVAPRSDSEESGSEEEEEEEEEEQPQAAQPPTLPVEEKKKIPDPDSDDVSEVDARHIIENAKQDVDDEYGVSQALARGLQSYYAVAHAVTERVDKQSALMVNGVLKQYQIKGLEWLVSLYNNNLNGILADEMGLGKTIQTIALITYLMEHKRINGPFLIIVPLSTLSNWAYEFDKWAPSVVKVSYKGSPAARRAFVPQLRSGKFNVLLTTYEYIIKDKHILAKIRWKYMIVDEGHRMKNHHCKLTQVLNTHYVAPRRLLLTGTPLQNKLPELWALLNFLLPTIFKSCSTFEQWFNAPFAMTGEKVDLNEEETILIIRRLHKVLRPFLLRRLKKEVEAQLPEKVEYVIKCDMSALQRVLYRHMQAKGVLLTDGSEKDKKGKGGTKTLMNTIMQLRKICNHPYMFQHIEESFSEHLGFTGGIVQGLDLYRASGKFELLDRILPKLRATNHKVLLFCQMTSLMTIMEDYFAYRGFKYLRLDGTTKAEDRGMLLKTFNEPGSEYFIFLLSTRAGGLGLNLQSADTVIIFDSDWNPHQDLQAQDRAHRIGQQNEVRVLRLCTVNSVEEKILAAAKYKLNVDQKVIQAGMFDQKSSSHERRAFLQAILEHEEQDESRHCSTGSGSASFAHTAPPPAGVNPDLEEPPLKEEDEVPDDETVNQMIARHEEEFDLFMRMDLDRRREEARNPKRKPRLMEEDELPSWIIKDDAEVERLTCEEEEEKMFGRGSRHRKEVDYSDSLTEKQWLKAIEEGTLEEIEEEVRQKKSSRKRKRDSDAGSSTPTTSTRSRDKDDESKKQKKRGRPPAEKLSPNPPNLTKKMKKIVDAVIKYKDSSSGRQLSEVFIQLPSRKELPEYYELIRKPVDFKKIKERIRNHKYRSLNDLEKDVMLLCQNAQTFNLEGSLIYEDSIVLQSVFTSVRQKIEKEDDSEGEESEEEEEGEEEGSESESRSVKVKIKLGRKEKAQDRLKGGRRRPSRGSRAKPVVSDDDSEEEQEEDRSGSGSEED
PROTOCOL TEXT: SMARCA4 HiBiT degradation assay in HeLa cells
Assay type: cell-based
CONDITION SET: 18 hours incubation, read-out: HeLa-HiBit-SM4 DC50
MEASURED METRIC: DC50

These recorded examples may help you get a feel for the data.
{"columns": ["MOLECULE", "ENDPOINT RESULT"],
 "data": [
  ["O=C1CCC(N2C(=O)c3cccc(N4CCC(OCCN5CCC(N6CCN7c8cc(-c9ccccc9O)nnc8NC[C@H]7C6)CC5)CC4)c3C2=O)C(=O)N1 (stereo partly drawn)", "< 10 nM"],
  ["O=C1CCC(N2C(=O)c3ccc(C4CCN(CC5CCN(C(=O)N6CCN7c8cc(-c9ccccc9O)nnc8NC[C@H]7C6)CC5)CC4)cc3C2=O)C(=O)N1 (stereo partly drawn)", "< 10 nM"]
]}

--- query ---
For this molecule ( O=C1CCC(N2C(=O)c3ccc(N4CCC(O)(CN5CCC(CN6CCN7c8cc(-c9ccccc9O)nnc8NC[C@H]7C6)CC5)CC4)cc3C2=O)C(=O)N1 (stereo partly drawn) ), measured DC50 is < 10 nM
